- TARGET_OR_TEST_SYSTEM: human Cystic Fibrosis Transmembrane Conductance Regulator (CFTR) harboring the ΔF508 mutation (Homo sapiens, UniProt P13569, DEL508-508)
- Sequence (P13569 with tags, fused parts or gaps DEL508-508): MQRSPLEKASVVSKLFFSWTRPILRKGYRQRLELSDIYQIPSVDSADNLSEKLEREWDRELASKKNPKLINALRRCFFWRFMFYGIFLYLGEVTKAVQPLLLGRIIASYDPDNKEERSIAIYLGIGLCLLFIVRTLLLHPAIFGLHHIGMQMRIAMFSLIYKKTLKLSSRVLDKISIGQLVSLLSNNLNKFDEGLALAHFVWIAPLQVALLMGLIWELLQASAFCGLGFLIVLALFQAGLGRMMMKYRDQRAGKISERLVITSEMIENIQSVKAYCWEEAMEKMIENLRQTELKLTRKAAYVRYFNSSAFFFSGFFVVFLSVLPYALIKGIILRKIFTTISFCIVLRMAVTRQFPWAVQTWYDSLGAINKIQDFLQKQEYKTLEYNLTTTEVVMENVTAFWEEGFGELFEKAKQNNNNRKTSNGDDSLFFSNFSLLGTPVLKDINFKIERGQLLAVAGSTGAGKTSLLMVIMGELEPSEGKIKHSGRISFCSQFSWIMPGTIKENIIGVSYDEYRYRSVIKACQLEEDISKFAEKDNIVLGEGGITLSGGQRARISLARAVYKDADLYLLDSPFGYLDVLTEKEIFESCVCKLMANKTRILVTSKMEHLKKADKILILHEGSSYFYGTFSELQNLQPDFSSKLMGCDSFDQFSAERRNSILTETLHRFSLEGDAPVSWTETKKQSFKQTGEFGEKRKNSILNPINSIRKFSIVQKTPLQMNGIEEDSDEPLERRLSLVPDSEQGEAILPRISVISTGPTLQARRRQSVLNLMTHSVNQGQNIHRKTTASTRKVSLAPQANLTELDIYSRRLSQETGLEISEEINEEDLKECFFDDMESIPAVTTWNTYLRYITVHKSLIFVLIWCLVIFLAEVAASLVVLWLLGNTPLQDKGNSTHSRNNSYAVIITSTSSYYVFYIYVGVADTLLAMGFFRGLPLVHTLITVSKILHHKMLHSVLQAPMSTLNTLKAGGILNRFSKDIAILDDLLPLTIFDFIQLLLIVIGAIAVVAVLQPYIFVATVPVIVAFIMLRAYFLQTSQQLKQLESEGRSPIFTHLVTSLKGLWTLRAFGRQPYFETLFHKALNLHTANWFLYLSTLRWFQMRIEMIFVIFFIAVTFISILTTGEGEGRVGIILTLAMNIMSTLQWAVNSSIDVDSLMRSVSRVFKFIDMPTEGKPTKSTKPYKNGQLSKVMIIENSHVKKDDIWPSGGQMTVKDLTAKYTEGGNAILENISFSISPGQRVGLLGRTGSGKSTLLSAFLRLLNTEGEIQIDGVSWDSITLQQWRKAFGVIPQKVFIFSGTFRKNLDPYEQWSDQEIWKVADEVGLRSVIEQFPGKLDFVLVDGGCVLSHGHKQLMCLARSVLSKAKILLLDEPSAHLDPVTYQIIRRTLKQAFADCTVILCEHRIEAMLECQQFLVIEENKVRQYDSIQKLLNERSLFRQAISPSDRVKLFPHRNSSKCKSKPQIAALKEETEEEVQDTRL
- TEST_SUMMARY: H441 cell ΔF508-CFTR-HRP cell surface assay (Emax and EC50)
Labelling: EC50 reported below 200 nM becomes met; at or above becomes not met.

## Task Could you please tell me whether EC50 recorded for CCCC(C)(CC)[C@H](NC(=O)c1ccc2ccc(Cl)cc2c1OCc1ccc(OC(F)(F)F)cc1)C(=O)O (some centres unmarked) [Example 251] is less than 200 nM?
## Result met

## Task Then Cc1ccc2c(OCc3ccc(C(F)(F)F)cc3)c(C(=O)N[C@H](C(=O)O)C(C)(C)C)ccc2c1 [Example 233] ?
## Result not met

## Task Then CC(C)(C)[C@H](NC(=O)c1ccc2ccccc2c1OCc1ccc(C(F)(F)F)cc1F)C(=O)O [Example 70] ?
## Result not met

## Task Then CC1([C@H](NC(=O)c2ccc3ccc(Cl)cc3c2OCc2ccc(C(F)(F)F)cc2)C(=O)O)CCCC1 [Example 302] ?
## Result met

## Task Then CC(C)(C)C[C@H](NC(=O)c1ccc2ccccc2c1OCc1ccc(C(F)(F)F)cc1)C(=O)O [Example 141] ?
## Result not met

## Task Then CC(C)(c1ccccc1)[C@H](NC(=O)c1ccc2cc(F)ccc2c1OCc1ccc(SC(F)(F)F)cc1)C(=O)O [Example 22] ?
## Result not met

## Task Then CCC(C)(C)C(NC(=O)c1ccc2ccc(C)cc2c1OCc1ccc(OC(F)(F)F)cc1)C(=O)O (centres unmarked) [Example 276] ?
## Result not met

## Task Then Cc1ccc2ccc(C(=O)N[C@H](C(=O)O)C(C)(C)C)c(OCc3ccc(C(F)(F)F)cc3)c2c1 [Example 279] ?
## Result met

## Task Then CC(C)(C)[C@H](NC(=O)c1ccc2ccc(C(F)F)cc2c1OCc1ccc(C(F)(F)F)cc1)C(=O)O [Example 244] ?
## Result met

## Task Then C=CCOc1ccc(C[C@H](NC(=O)c2ccc3ccccc3c2OCc2ccc(C(F)(F)F)cc2)C(=O)O)cc1 [Example 92] ?
## Result not met

## Task Then O=C(N[C@@H](Cc1ccccc1)C(=O)O)c1ccc2ccccc2c1OCc1ccc([N+](=O)[O-])cc1 [Example 91] ?
## Result not met

## Task Then C=C(C)C1CC=C(COc2c(C(=O)N[C@H](C(=O)O)C(C)(C)C)ccc3ccccc23)CC1 (some centres unmarked) [Example 49] ?
## Result not met

## Task Then CC(C)(C)[C@H](NC(=O)c1cc(F)c2ccccc2c1OCc1ccc(C(F)(F)F)cc1)C(=O)O [Example 64] ?
## Result not met

## Task Then CC(C)(c1ccccc1)[C@H](NC(=O)c1ccc2ccccc2c1OCc1ccc(C(F)(F)F)cc1)C(=O)O [Example 9] ?
## Result not met

## Task Then CC(C)(S[C@@H]1C[C@@H]2CC[C@H]1C2)[C@H](NC(=O)c1ccc2cc(F)ccc2c1OCc1ccc(SC(F)(F)F)cc1)C(=O)O [Example 177] ?
## Result not met

====

- TARGET_OR_TEST_SYSTEM: human Cystic Fibrosis Transmembrane Conductance Regulator (CFTR) harboring the ΔF508 mutation (Homo sapiens, UniProt P13569, DEL508-508)
- Construct: expressed in transfected cells; host or cells: H441 carcinoma line (G418-selected)
- TEST_SUMMARY: H441 cell ΔF508-CFTR-HRP cell surface assay (Emax and EC50)
- Assay type: cell-based
- CONDITION_SET: NCI-H441, NA = Not active
Task for the reader: assign each of the following compounds its reported Emax.
Supply the numeric figure in %, leaving out any unit text.

## Task What does the record list as Emax for `CCC(C)(C)[C@H](NC(=O)c1ccc2ccc(C(F)(F)F)cc2c1OCc1ccc(OC(F)(F)F)cc1)C(=O)O` ?
## Result 186

## Task Then `COc1ccc2c(OCc3ccc(C(F)(F)F)cc3)c(C(=O)N[C@@H](CC(C)(C)C)C(=O)O)ccc2c1` ?
## Result 47.7

## Task Then `CC(C)(C)[C@H](NC(=O)c1ccc2cc(F)ccc2c1OCc1nc2ccccc2s1)C(=O)O` ?
## Result 132

## Task Then C[C@@H](OCc1ccccc1)C(NC(=O)c1ccc2ccccc2c1OCC1CCCCC1)C(=O)O (stereo partly shown) ?
## Result 82.5

## Task Then `CCC(C)(C)[C@H](NC(=O)c1ccc2ccc(F)cc2c1OCc1ccc(C(F)(F)F)cc1)C(=O)O` ?
## Result 195

## Task Then `CC(C)(C)C[C@H](NC(=O)c1ccc2cc(F)ccc2c1OCC1CCCCC1)C(=O)O` ?
## Result 92.2

## Task Then C#CC(C)(C)C(NC(=O)c1ccc2ccccc2c1OCc1ccc(C(F)(F)F)cc1)C(=O)O (stereo not shown) ?
## Result 215

## Task Then `CCC(C)(C)[C@H](NC(=O)c1ccc2ccc(C)cc2c1OCCCC(C)(C)C)C(=O)O` ?
## Result 369

## Task Then `COC(=O)c1ccc(COc2c(C(=O)N[C@H](C(=O)O)C(C)(C)C)ccc3ccccc23)cc1` ?
## Result 70.2

## Task Then `Cc1ccc2ccc(C(=O)N[C@H](C(=O)O)C(C)(C)C)c(OCc3ccc(C(F)(F)F)cc3)c2c1` ?
## Result 348

## Task Then `O=C(N[C@@H](Cc1ccc(C(F)(F)F)cc1)C(=O)O)c1ccc2cc(F)ccc2c1OCc1nc2ccccc2s1` ?
## Result 65.8

## Task Then `CO[C@@H](C)[C@H](NC(=O)c1ccc2ccccc2c1OCc1ccc(C(F)(F)F)cc1)C(=O)O` ?
## Result 93.5

## Task Then `CC(C)(C)[C@@H](NC(=O)c1ccc2ccc(C(F)(F)F)cc2c1OCc1ccc(C(F)(F)F)cc1)C(=O)O` ?
## Result 81.1

## Task Then `O=C(N[C@@H](Cc1ccc(C(F)(F)F)cc1)C(=O)O)c1ccc2ccccc2c1OCc1nc2ccccc2s1` ?
## Result 87.2

## Task Then `CCC(C)(C)[C@H](NC(=O)c1ccc2ccc(C)cc2c1OCc1ccc(C(F)(F)F)cc1)C(=O)O` ?
## Result 404

## Task Then `O=C(N[C@H](C(=O)O)C1Cc2ccccc2C1)c1ccc2ccccc2c1OCc1ccc(C(F)(F)F)cc1` ?
## Result 135

## Task Then `O=C(N[C@@H](Cc1ccc(C(F)(F)F)cc1)C(=O)O)c1ccc2cc(F)ccc2c1OCc1ccc(Cl)c(Cl)c1` ?
## Result 38.8

## Task Then `CS(=O)(=O)c1ccc(COc2c(C(=O)N[C@H](C(=O)O)C3CCCC3)ccc3ccccc23)cc1` ?
## Result 22.8

## Task Then `O=C(N[C@H](C(=O)O)C1CCCC1)c1ccc2ccccc2c1OCc1ccc(S(F)(F)(F)(F)F)cc1` ?
## Result 93.1

## Task Then `O=C(N[C@H](C(=O)O)C12CC(C(F)(F)F)(C1)C2)c1ccc2ccccc2c1OCc1ccc(C(F)(F)F)cc1` ?
## Result 81.3

## Task Then `CC(C)(SC1CCCC1)[C@H](NC(=O)c1ccc2ccccc2c1OCC1CCCCC1)C(=O)O` ?
## Result 143

## Task Then `O=C(N[C@@H](Cc1ccccc1)C(=O)O)c1ccc2ccccc2c1OCc1ccc2c(c1)OCO2` ?
## Result 3.7

## Task Then CC(C)(SCC1CC1(F)F)[C@H](NC(=O)c1ccc2ccccc2c1OCC1CCCCC1)C(=O)O (stereo partly shown) ?
## Result 113

## Task Then `CC(C)(C)C[C@H](NC(=O)c1ccc2cc(F)ccc2c1OCc1ccc(SC(F)(F)F)cc1)C(=O)O` ?
## Result 47

## Task Then `CC(C)(C)[C@H](NC(=O)c1ccc2ccc(C(F)(F)F)cc2c1OCc1ccc(C(F)(F)F)cc1)C(=O)O` ?
## Result 327

====

Task for the reader: assign each of the following compounds its reported Emax.
- TARGET_OR_TEST_SYSTEM: human Cystic Fibrosis Transmembrane Conductance Regulator (CFTR) harboring the ΔF508 mutation (Homo sapiens, UniProt P13569, DEL508-508)
- Construct: expressed in transfected cells; host or cells: H441 carcinoma line (G418-selected)
- TEST_SUMMARY: H441 cell ΔF508-CFTR-HRP cell surface assay (Emax and EC50)
- Format: cell-based
- CONDITION_SET: NCI-H441, NA = Not active
Units required after the number.

## Task What does the record list as Emax for `CC(C)(C)[C@H](NC(=O)c1ccc2ccccc2c1OCc1ccc2c(c1)OCO2)C(=O)O` ?
## Result 9.1%

## Task Then C[C@@H](OCc1ccccc1)C(NC(=O)c1ccc2ccccc2c1OCC1CCC(CO)CC1)C(=O)O (stereo partly shown) ?
## Result 62.2%

## Task Then `COC(C)(C)[C@H](NC(=O)c1ccc2cc(F)ccc2c1OCc1ccc(SC(F)(F)F)cc1)C(=O)O` ?
## Result 71%

## Task Then `CC(C)(S[C@@H]1C[C@@H]2CC[C@H]1C2)[C@H](NC(=O)c1ccc2ccccc2c1OCc1ccc(C(F)(F)F)cc1)C(=O)O` ?
## Result 164%

## Task Then `CCC(C)(C)[C@H](NC(=O)c1ccc2cc(OC)ccc2c1OCc1ccc(SC(F)(F)F)cc1)C(=O)O` ?
## Result 44.3%

## Task Then `CCC1([C@H](NC(=O)c2ccc3ccc(F)cc3c2OCc2ccc(OC(F)(F)F)cc2)C(=O)O)CCCC1` ?
## Result 152%

## Task Then `O=C(N[C@H](C(=O)O)C(c1ccccc1)c1ccccc1)c1ccc2cc(F)ccc2c1OCc1nc2ccccc2s1` ?
## Result 115%
